Test: Nuclear factor erythroid 2-related factor 2/antioxidant responsive element (Nrf2/ARE) small molecule agonists: qHTS cell viability counter screen in human keratinocytes (AID 1919968); also: nearly all actives have a fitted effect of over 55% in size
Conditions: KeratinoSens HaCaT ARE cells viability, CellTiter-Fluor, 24 h; series mostly up to 92.4 µM
Results filed as inconclusive are left out. Calls of active or inactive are those of the source. Calls follow the shape of the dose curve; as a rule, active = well fitted cell-killing curve with a large enough effect in the repeat runs; inconclusive = weak or mixed curves, or effect the other way; inactive = flat fitted curve, though single readings scatter.
Write down the outcome that applies. Available outcomes: active, inactive

Some solved cases for reference:
COMPOUND: OC[C@H]1O[C@@H](OCCc2ccc(O)cc2)[C@H](O)[C@@H](O)[C@@H]1O
CATEGORY: inactive
--
COMPOUND: Cc1ncc(COP(=O)(O)O)c(C=O)c1O
CATEGORY: inactive
--
COMPOUND: CCCCC(CC)COC(=O)c1ccccc1C(=O)O (stereo not drawn)
CATEGORY: inactive
--
COMPOUND: CCCOc1sc(C(=O)N2CCC(c3cc(CN)ccc3F)CC2)c(C)c1Br
CATEGORY: active
--
COMPOUND: CCc1c(C)cc(N)c(CC)c1N
CATEGORY: inactive
--
COMPOUND: Oc1ccc2c(c1)Cc1ccccc1-2
CATEGORY: inactive

Now take the following compound into account.
Query :: Check the results log: what was the call for CC1=CC(C)C(C=O)C(C)C1 (stereo not drawn) ?
Result :: inactive
